Provenance of the data: the nanobody polyreactivity screen of Harvey et al. (2022)

assay: yeast display, Sf9 membrane polyspecificity reagent, FACS + sequencing; frameworks hold sequencing errors
reportedProperty: polyreactivity (PSR sort gate)

Solved entries (count: 5):
seqString	polyreactivity (PSR sort gate)
QVQLVESGGGLVQAGGSLRLSCAASGSILVNMGWYRQPPGKERELVAAIRYGGGRTYYADSVKGRFTISRDNAKNTVYLQMNSLKPEDTAVYYCAASQGRSYYYWGQGTQVTVSS	low polyreactivity
QVQLVESGGGLVQAGGSLRLSCAASGLIIRRYAMGWYRQAPGKERELVAAISGSGSSTYYADSVKGRFTISRDNAKNTVYLQMNSLKPEDTAVYDCAAVVLFRRGQVIRVESDYWGQGTQVTVSS	high polyreactivity
QVQLVESGGGLVQAGGSLRLSCAASGRTFRRNAMGWYRQAPGKERELVAAISSRGGSTYYADSVKGRFTISRDNAKNSVYLQMNSLKPEDTAVYYCNKGTPPTGTLGDYEYWGQGTQVTVSS	high polyreactivity
QVQLVESGGGLVQAGGSLRLSCAASGRTFTKYAMGWYRQAPGKERELVAAISRSGGSSYYADSAPGRFTISRDNAKNTVYLQMNSLKPEDTAVYYCAARGQYRYSFGDYSWGQGTQVTVSS	high polyreactivity
QVQHVESGGGLVQAGGSLSLSCADSGFIFRYYAMGWYRQAPGKERELDAAISWSGGSTYYADSVKGRFTISRDNSKNTVYLQMNSLKPEDTAVYYCAADRYAILFYAEDYWGQGSQVTVSS	low polyreactivity

## Task Quick one: polyreactivity (PSR sort gate) for QVQLVESGGGLVQAGGSLRLTCAASGYTFNYYAKGWYRQAPGKERELVAAIDWSDGTTYYADSVKGRFTISPDYAKNTVYLQMNSLKPEDTAVYYCAASLSQSEYDYWGQGTLVTVSS ?
## Result low polyreactivity

## Task Quick one: polyreactivity (PSR sort gate) for QVQLVESGGGLVQAGGSLRLSCAASGRIFGKYAMGWYRQAPGKERELVAAISRSGASTYYADSVKGRFTISRDNAKNTVYLQMNSLKPEDTAVYYCAAVPPYNYRVRVYYWGQGTQVTVSS ?
## Result high polyreactivity

## Task Quick one: polyreactivity (PSR sort gate) for QVQLVESGGGLVQAGGSLRLSCAASGRTFGVNAMGWYRQAPRKERELVARIRVSGGRTYYADSVKGRFTISRDNAKNSVYLLMNSLKPEDTAVYYCNAGDTYNRVIWPYYYCGQGTQVTVSS ?
## Result high polyreactivity

## Task Quick one: polyreactivity (PSR sort gate) for QVQLVESGGGLVQAGGSLRLSCAASGFIFYSNAMGWYSQAPGKVRELVAAISRGGGSTYYADSVKGRFTISRDNAKNTVYLQMNSLKPEDTAVYYCAKRRLSPQDDYWGQGTQVTLSS ?
## Result high polyreactivity

## Task Quick one: polyreactivity (PSR sort gate) for QVPLVASGGGLVQAGGSLRLSCSASGRTFQYNAMGCYRQAPGKERELVAAITKRGTSTYFADSVKGRFTISRDNAKNTVYLQMNRLIPEDTAVYYCAALEGSLTGWQTYDYWGQGTQVTVSS ?
## Result low polyreactivity

## Task Quick one: polyreactivity (PSR sort gate) for QVQLVESGGGLVQAGGSLRLSCAASALTLRTYAMGWYRQAPGKERELVAAITTGGSTYYADSVKGRFTISRDNAKNTVYLQLNSLKPEDTAVYYCAADFIRYINRLLYDYWGQGTQVTVSS ?
## Result low polyreactivity

----------
assay: yeast display, Sf9 membrane polyspecificity reagent, FACS + sequencing; frameworks hold sequencing errors

seqString	polyreactivity (PSR sort gate)
QVQLVESGGGLVQAGGSLRLSCAASGFTFIDYTMGWYRQAPGKERELVARITDTGSTNYADSVKGRFTISRDNAKNTVYLQMNRLKPEDTAVYYCNKDDRNDRTIPGYDPEYDYWGQGTQVTVSS	low polyreactivity
QVQIVESGGGLVQAGGSLRLSCAASGRTFGVYAMGWYRQAPAKESTYYADSVKGRFTISRDNAKNTVYLQMNSLKPEDTAVYYCNARGGFGYITMDYWGQGTQVTVSS	low polyreactivity
QVHLVESGGGLVQAGGSLRLTCAASGLIFYDNMGWYRQAPGKERELVAAISSSGGSTSYADSVKGRFTISRDNAKNTVYLQMTSLKPVDTAVYYCAADSYPAYLGFVGFDYWGKGTQVTVSS	low polyreactivity

----------
assay: yeast display, Sf9 membrane polyspecificity reagent, FACS + sequencing; frameworks hold sequencing errors
reportedProperty: polyreactivity (PSR sort gate)

Solved entries (count: 5):
seqString	reportedProperty	reading
QVQLVESGGGLVQAGGSLRLSCAASGIIFRYYTMGWYRQAPGKERELVAAISWGGGSTYYADSVKGRFTISRDYAKNTVYLQMNSLKPEDTAVYYCAAEGLTYYNYREWLYYYWGQGTQVTVSS	polyreactivity (PSR sort gate)	high polyreactivity
QVQLVESGGGLVQAGGSLRLSCAASGFTFWNNAMGWYRQAPGKERELVAAISWSGGSTYYADSVKGRFTISRDNAKNTFDLQMNRLKPEDSAVYYCAAGDGPWLPRVHYGGYGYWGQGTQVTVSS	polyreactivity (PSR sort gate)	high polyreactivity
QVQLVESGGGLVQAGGSLRLSCAASGSTFDNYAMGWYRQAPGKERELVAAINSRGGRTYYADSVKGRFTISRDNAKNTVYLQMNSLKPDDTAVYYCAAVGATHRFDYWGQGTQVTVSS	polyreactivity (PSR sort gate)	high polyreactivity
QVQLVESGGGLVQAGGSLRLSCAASGFIFGANAMGWYRPAPGKERELVASINGSGGSTFYADSVKGRFTISRDNAKNTVYLQMNSLNPEDTAVYYCAAPCFCWFTTGGYYYWGQGTQVTVSS	polyreactivity (PSR sort gate)	low polyreactivity
QVQLVESGGGLVQAGGSLRLSCAASGSTFDIYAMGWYRQAPGKERELVAAITVSGGSTYYADSVKGRFTISRDNAKNTVYLQMNSLKPEDTAVYYCNADWSGWQGWYNYWGQGTQVTVSS	polyreactivity (PSR sort gate)	low polyreactivity

## Task Quick one: polyreactivity (PSR sort gate) for QVQLQESRGGLVQAGGSLRLGFAASGNISDAGNKGWYRQAPGKEREFVAAIAAGSNTNYADSVKGRFTISRDNAKNTVYLQMNSLKPEDTAVFYCAVAYYARLQYEYWGQGTQVTVKS ?
## Result low polyreactivity

## Task Quick one: polyreactivity (PSR sort gate) for QVQLQESAGGRQPAPELRGERLYFWLLLMGWYRQAPGEERELVAGINDGASTNYADSVKGRFTISRDNARNTVYLKMNSLKPGDTAVYYCAVWQPVLIWFYYWGQGTQVTVSS ?
## Result high polyreactivity

## Task Quick one: polyreactivity (PSR sort gate) for QVQLVESGGGLVQAGGSLRLSCAASGFTFPVYAMGWYRQAPGKERELVAAISRRGGRTYYADSVKGRFTISRDNAKNTVYLQMNSLKPEDTAVYYCAAQSVPYAYRLASYDYWGQGTQVTVSS ?
## Result high polyreactivity

## Task Quick one: polyreactivity (PSR sort gate) for QVQLVESGGGLVQAGVSLRLSCAASGNIFGVYTMGWYRQAPGQEREFVAAISDGGSTYYADSVKGRFTISRDNAKNTVYLQMIRLKPEDTAVYYCAALIYGPDRVVDEFVYWGQGTQVTVSS ?
## Result low polyreactivity

## Task Quick one: polyreactivity (PSR sort gate) for QVQLVESGGGLVQAGGSLRLSCAASGSTFYRYAMGWYRQAPGKERELVARITQNGGSTYYADSVKGRFTISRDNAKNTVYLQMNSLKPEDTAVYYCADRWISVLSYGKYDYWGQGTQVTVSS ?
## Result high polyreactivity

## Task Quick one: polyreactivity (PSR sort gate) for QVQLVESGGGLVQAGGSLRLSCAASGITFVSYGMGWYRQAPGKERELVAAISSGGRTYADSVKGRFTISRDNAKNTVYLQMNSLKPEDTAVYYCNARDYASGTEGDYWGQGTLVTVSS ?
## Result low polyreactivity

----------
assay: yeast display, Sf9 membrane polyspecificity reagent, FACS + sequencing; frameworks hold sequencing errors
reportedProperty: polyreactivity (PSR sort gate)

seqString	polyreactivity (PSR sort gate)
QVQLVESGGGLVQAGGSIRLSCAASGRIFQYYAMGWYRQAPGKERELVAAISRSGGRTRYADSVKGRFTISRDNAKNTVYLQMNSLKPEDTAVYYCAASYGYDSTSLYDYWGQGTQVTVSS	high polyreactivity
QVQLVESGGGLVQAGGRLRLSCAASGFIFKQYVMGWYRQAPGKERELVAAISRSGGSTYYADSVKGRFTISRDNAKNTVYLQMNSLKPEDNAVYYCNADNYYPDYDSWGQGTQVTVSS	high polyreactivity
QVQLVESGGGLVQAGGSLRLSCAASGSTFDDYDMGWYRQAPGKEREFVATIDWSGGSTYYADSVKGRFTNSRDNAKNTVYLQMNSLKPEDTAVYYCTALRYVVYFDDDYWGQGTQVTVSS	high polyreactivity
QVQLVESGGGLVQAGGSLRLSCAASGLTIWYYSMGLYRQAPGKEREFVAAITSRGGDTNYADSVKGRFTISRDNAKNTVYLQMNSLKPEDTAVYYCAVRPRYYGTYRYYYWGQGTQVTVSS	high polyreactivity
QVQLVESGGGLVQAGGSLRLSCAASGRIYGYTMGWYRQAPGKERELVAAITRNGGSTYYADSVKGRFTISRDNSKNSVYLQMNSLKPEDTAVYYCAARNAFGTYYYWGQGTQVTVSS	high polyreactivity

## Task Quick one: polyreactivity (PSR sort gate) for QVQLVESGGGLVQAGGSLRLSCAASGRIFKHYAMGWYRQAPGKERELVAAITNGGRTNYADSVKGRFTISRDNAKNTVYLQMNSLKPEDTAVYYCARDRKIAYLSEGFDYWGQGTQVTVSS ?
## Result low polyreactivity

## Task Quick one: polyreactivity (PSR sort gate) for QVQLVESGGGLVQAGGSLRLSCAASGRIFVYYTMGWYRQAPGKERELVAAITGSGGSTYYADSVKGRFTISRDNAKNTVYLQMNSLKPEDTAVYSCAVYDSYRKFKYWGQGTQVTVSS ?
## Result high polyreactivity

## Task Quick one: polyreactivity (PSR sort gate) for QVQLVESGGGLVQAGGSLRLSCAASGRIIAIYAMGWYRPAPGKERELVAAISWNSGRTNYADSVKGRFTISRDNAKNTVYLQMNSLKPEDTAVYYCAADGDRYLVSTSYPEYDYWGQGTQVTVTS ?
## Result low polyreactivity

## Task Quick one: polyreactivity (PSR sort gate) for QVQLVESGGGLVQAGGSLRLSCAASGFTFVAYAMGWYRQAPGKERELVAALRRTGGSSSYADSVKGRFTISRDIAKNTVYLQMNRLKPEDTSVYYCNKVRLISGVYWSYQAFGYWGQGTQVTVSS ?
## Result high polyreactivity

## Task Quick one: polyreactivity (PSR sort gate) for QVQLVESGGGLVQAGGSLRLSCAASGRILSANAMGWYRQAPGKERELVAAITYSGDNTYYADSVKGRFTISRDNAKNTVYLQMNSLKPEDTAVYYCAREFQVDGGEEDYWGQGTQVTVSS ?
## Result low polyreactivity
